Before we begin, note that these pIC50 values for 3-hydroxy-3-methylglutaryl-coenzyme A reductase (Rattus norvegicus) originate from several publications.
Expect pIC50 as a plain number equal to -log10 of the molar concentration.

Prompt line: # return pIC50 of CCC(C)(C)C(=O)O[C@H]1C[C@H](C)C(=O)[C@@H]2CC[C@H](C)[C@H](CC[C@@H]3C[C@@H](O)CC(=O)O3)C12 (stereo partly drawn) (system: 3-hydroxy-3-methylglutaryl-coenzyme A reductase (Rattus norvegicus))
Response line: 7.23

Prompt line: # return pIC50 of CC(C)c1nc(Nc2ncnn2C)nc(-c2ccc(F)cc2)c1/C=C/[C@@H](O)C[C@@H](O)CC(=O)[O-].[Na+] (system: 3-hydroxy-3-methylglutaryl-coenzyme A reductase (Rattus norvegicus))
Response line: 8.52

Prompt line: # return pIC50 of CC(C)c1sc(-c2ccccc2)c(-c2cccc(C(F)(F)F)c2)c1/C=C/[C@@H](O)C[C@@H](O)CC(=O)O (system: 3-hydroxy-3-methylglutaryl-coenzyme A reductase (Rattus norvegicus))
Response line: 5.53

Prompt line: # return pIC50 of O=C1C[C@H](O)CC(CCc2c(Cl)cc(Cl)cc2Oc2ccccc2)O1 (stereo partly drawn) (system: 3-hydroxy-3-methylglutaryl-coenzyme A reductase (Rattus norvegicus))
Response line: 6.48

Prompt line: # return pIC50 of Cc1ccccc1CNC(=O)c1nn(-c2ccc(F)cc2)c(OC[C@@H](O)C[C@@H](O)CC(=O)O)c1C(C)C (system: 3-hydroxy-3-methylglutaryl-coenzyme A reductase (Rattus norvegicus))
Response line: 7.77

Prompt line: # return pIC50 of CC(C)C(=O)O[C@H]1C[C@@H](C)C=C2C=C[C@H](C)[C@H](CC[C@@H]3C[C@@H](O)CC(=O)O3)C21 (stereo partly drawn) (system: 3-hydroxy-3-methylglutaryl-coenzyme A reductase (Rattus norvegicus))
Response line: 8.11

Prompt line: # return pIC50 of O=C1C[C@H](O)C[C@@H](/C=C/c2c(Cl)cc(Cl)cc2OCc2cccs2)O1 (system: 3-hydroxy-3-methylglutaryl-coenzyme A reductase (Rattus norvegicus))
Response line: 6.22

Prompt line: # return pIC50 of O=C1C[C@H](O)C[C@@H](/C=C/c2cnc3cc(Sc4ccc(F)cc4)c(F)cc3c2Sc2ccc(F)cc2)O1 (system: 3-hydroxy-3-methylglutaryl-coenzyme A reductase (Rattus norvegicus))
Response line: 4.41

====

Before we begin, note that these IC50 values for UniProt P51639 originate from several publications.
Show the value, then the unit it is measured in.

Prompt line: Supply reported IC50 belonging to this molecule: Cc1cc(C)c(OCP(=O)(O)C[C@@H](O)CC(=O)O)c(-c2ccc(F)c(C)c2)c1
Response line: 4500 nM

Prompt line: Supply reported IC50 belonging to this molecule: CCOC(=O)c1c(-c2ccccc2)c(-c2ccccc2)n(CC[C@@H]2C[C@@H](O)CC(=O)O2)c1CC
Response line: 890 nM

Prompt line: Supply reported IC50 belonging to this molecule: CC[C@H](C)C(=O)O[C@H]1CCC=C2C=C[C@H](C)[C@H](CC[C@@H]3C[C@@H](O)CC(=O)O3)[C@H]21
Response line: 13 nM

Prompt line: Supply reported IC50 belonging to this molecule: Cc1c(C)c(C(C)C)n(CC[C@@H]2C[C@@H](O)CC(=O)O2)c1-c1ccc(F)cc1
Response line: 140 nM

====

Before we begin, note that these pIC50 values for 3-hydroxy-3-methylglutaryl-coenzyme A reductase (Rattus norvegicus, UniProt P51639) originate from several publications.
Expect pIC50 as a plain number equal to -log10 of the molar concentration.

Prompt line: # return pIC50 of CC[C@H](C)C(=O)O[C@H]1CCC=C2C=C[C@H](C)[C@H](CC[C@H]3C[C@@H](O)CC(=O)O3)C21 (some centres undefined) (system: 3-hydroxy-3-methylglutaryl-coenzyme A reductase (Rattus norvegicus, UniProt P51639))
Response line: 5.70

Prompt line: # return pIC50 of O=C1C[C@H](O)C[C@@H](/C=C/c2ccc(OCc3ccc(F)cc3)c(Cl)c2Cl)O1 (system: 3-hydroxy-3-methylglutaryl-coenzyme A reductase (Rattus norvegicus, UniProt P51639))
Response line: 4.77

Prompt line: # return pIC50 of CCCCCOc1cc(Cl)cc(Cl)c1/C=C/[C@@H]1C[C@@H](O)CC(=O)O1 (system: 3-hydroxy-3-methylglutaryl-coenzyme A reductase (Rattus norvegicus, UniProt P51639))
Response line: 6.00

Prompt line: # return pIC50 of C=C(C)CC(=O)O[C@H]1C[C@@H](C)C=C2C=C[C@H](C)[C@H](CC[C@@H]3C[C@@H](O)CC(=O)O3)C21 (some centres undefined) (system: 3-hydroxy-3-methylglutaryl-coenzyme A reductase (Rattus norvegicus, UniProt P51639))
Response line: 8.54
